- System: 134 cancer cell lines
- measurement_notes: Cell viability assay (ATPlite, 72 hours), IC50 on cancer cell line panel
- condition_notes: read-out: IC50 in cell proliferation assay, cell line PC-3
Kindly state IC50 for each of the entries shown.
Numbers only, in µM.

// solved cases for IC50 follow
- Cc1nc(NC(=O)N2CCC[C@H]2C(N)=O)sc1-c1ccnc(C(C)(C)C(F)(F)F)c1: 22.7
- COc1ccc(CN2C3CC2CN(c2ccc(-c4cc(OCC(C)(C)O)cn5ncc(C#N)c45)cn2)C3)cn1: 3.85

Which measured IC50 value corresponds to "COc1cc2ncnc(Nc3ccc(F)c(Cl)c3)c2cc1NC(=O)/C=C/CN1CCCCC1" ?
5.26

---

- subject_of_test: panel of 255 wild-type kinases (Homo sapiens)
- measurement_notes: Kinase panel profiling at 1 µmol/L (MSA or IMAP), percentage inhibition
- Type: biochemical
- condition_notes: kinase FLT1; 1 µmol/L single concentration; read-out: %-inhibition at 1 µmol/L, FLT1
quantity_kind: inhibition at 1 µM (%)
Answers are plain numbers, in %.

State recorded inhibition at 1 µM for all listed compounds.
1. O=C(Nc1cnn2ccc(N3CCC[C@@H]3c3cc(F)ccc3F)nc12)N1CC[C@H](O)C1
2. CCn1c(=O)c(-c2cc(NC(=O)Nc3ccccc3)c(F)cc2Br)cc2cnc(NC)cc21
3. COc1ccc(CN2C3CC2CN(c2ccc(-c4cc(OCC(C)(C)O)cn5ncc(C#N)c45)cn2)C3)cn1

[-0.638, 91, 98]

---

- subject_of_test: panel of 255 wild-type kinases (Homo sapiens, UniProt O00311)
- Sequence (O00311 whole entry): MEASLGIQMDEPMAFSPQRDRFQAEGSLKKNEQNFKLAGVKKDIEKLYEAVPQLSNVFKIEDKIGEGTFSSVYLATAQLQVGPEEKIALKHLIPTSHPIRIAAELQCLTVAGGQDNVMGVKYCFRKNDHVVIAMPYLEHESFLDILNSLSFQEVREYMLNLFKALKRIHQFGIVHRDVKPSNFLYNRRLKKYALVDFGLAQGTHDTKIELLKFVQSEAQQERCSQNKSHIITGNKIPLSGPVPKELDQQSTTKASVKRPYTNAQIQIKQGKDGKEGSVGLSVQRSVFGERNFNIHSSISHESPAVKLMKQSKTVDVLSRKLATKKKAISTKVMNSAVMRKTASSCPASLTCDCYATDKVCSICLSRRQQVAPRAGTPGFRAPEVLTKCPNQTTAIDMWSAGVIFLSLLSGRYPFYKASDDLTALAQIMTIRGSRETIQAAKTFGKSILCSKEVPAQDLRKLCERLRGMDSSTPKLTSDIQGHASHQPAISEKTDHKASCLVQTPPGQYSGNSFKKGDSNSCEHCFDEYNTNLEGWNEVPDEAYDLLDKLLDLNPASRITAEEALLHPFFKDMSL
- measurement_notes: Kinase panel profiling at 1 µmol/L (MSA or IMAP), percentage inhibition
- Assay type: biochemical
- condition_notes: CDC7/ASK kinase assay; 1 µmol/L single concentration; read-out: %-inhibition CDC7/ASK
Kindly state inhibition at 1 µM for each of the entries shown.
Give bare numbers, in %.

Consider the reported inhibition at 1 µM for these molecules:
- FC(F)(F)c1ccc(CNc2ccc(Cc3c[nH]c4ncc(Cl)cc34)cn2)cn1 [pexidartinib]: 0.521
- CO[C@]1(C(=O)N[C@@H](C)c2ccc(-n3cc(F)cn3)nc2)CC[C@H](c2nc(C)cc(Nc3cc(C)[nH]n3)n2)CC1 [pralsetinib]: -1.05
- Cn1cnc2c(F)c(Nc3ccc(Br)cc3Cl)c(C(=O)NOCCO)cc21 [selumetinib]: -0.0396
- COC(=O)N[C@@H](C)CNc1nccc(-c2cn(C(C)C)nc2-c2cc(Cl)cc(NS(C)(=O)=O)c2F)n1 [encorafenib]: -4.28

Batch request: inhibition at 1 µM per item, same order as input.
1. CCn1c(=O)c(-c2cc(NC(=O)Nc3ccccc3)c(F)cc2Br)cc2cnc(NC)cc21 [ripretinib]
2. CCc1nc(C(N)=O)c(Nc2ccc(N3CCC(N4CCN(C)CC4)CC3)c(OC)c2)nc1NC1CCOCC1 [gilteritinib]
3. O=C(Nc1cnn2ccc(N3CCC[C@@H]3c3cc(F)ccc3F)nc12)N1CC[C@H](O)C1 [larotrectinib]

1: 0.278; 2: 3; 3: -3.24

---

- subject_of_test: panel of 255 wild-type kinases (Homo sapiens, UniProt P51813)
- Sequence (P51813 whole entry): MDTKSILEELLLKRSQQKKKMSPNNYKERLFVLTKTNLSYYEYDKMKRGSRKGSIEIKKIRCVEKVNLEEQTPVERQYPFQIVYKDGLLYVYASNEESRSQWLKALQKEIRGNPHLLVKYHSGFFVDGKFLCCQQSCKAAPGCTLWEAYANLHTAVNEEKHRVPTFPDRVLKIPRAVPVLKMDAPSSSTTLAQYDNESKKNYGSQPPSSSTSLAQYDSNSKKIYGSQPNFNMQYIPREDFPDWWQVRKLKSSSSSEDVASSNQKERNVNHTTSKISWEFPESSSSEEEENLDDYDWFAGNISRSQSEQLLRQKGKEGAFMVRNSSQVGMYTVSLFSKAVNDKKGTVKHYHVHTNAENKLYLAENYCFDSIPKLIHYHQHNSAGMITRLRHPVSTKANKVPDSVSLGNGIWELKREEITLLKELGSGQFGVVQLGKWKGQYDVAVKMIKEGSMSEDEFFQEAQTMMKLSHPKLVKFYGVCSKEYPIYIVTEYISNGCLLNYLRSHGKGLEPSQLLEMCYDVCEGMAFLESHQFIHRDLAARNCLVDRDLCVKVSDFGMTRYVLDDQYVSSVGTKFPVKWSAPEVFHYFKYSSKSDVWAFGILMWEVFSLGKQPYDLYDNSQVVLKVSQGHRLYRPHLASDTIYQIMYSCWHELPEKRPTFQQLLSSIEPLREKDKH
- measurement_notes: Kinase panel profiling at 1 µmol/L (MSA or IMAP), percentage inhibition
- Type: biochemical
- condition_notes: BMX kinase assay; 1 µmol/L single concentration; read-out: %-inhibition BMX
Binary classification by inhibition at 1 µM, with 10% as an inclusive lower bound for satisfied; all other cases are not satisfied.

Here's what some known entries look like.
- CCN1C(=O)N(c2c(F)c(OC)cc(OC)c2F)Cc2cnc3[nH]c(CN4CCOCC4)cc3c21 [pemigatinib]: not satisfied
- COc1ccc(CN2C3CC2CN(c2ccc(-c4cc(OCC(C)(C)O)cn5ncc(C#N)c45)cn2)C3)cn1 [selpercatinib]: satisfied
- C[C@H]1Oc2cc(cnc2N)-c2c(nn(C)c2C#N)CN(C)C(=O)c2ccc(F)cc21 [lorlatinib]: not satisfied
- CCN1CCN(c2ccc(Nc3cc(N(C)C(=O)Nc4c(Cl)c(OC)cc(OC)c4Cl)ncn3)cc2)CC1 [infigratinib]: not satisfied

Please tell me: is the molecule COc1cc2ncnc(Nc3ccc(F)c(Cl)c3)c2cc1NC(=O)/C=C/CN1CCCCC1 [dacomitinib] at or over 10% in terms of inhibition at 1 µM?
satisfied

Check this molecule for inhibition at 1 µM at or above 10%: CO[C@]1(C(=O)N[C@@H](C)c2ccc(-n3cc(F)cn3)nc2)CC[C@H](c2nc(C)cc(Nc3cc(C)[nH]n3)n2)CC1 [pralsetinib]
satisfied

Assess whether reported inhibition at 1 µM for O=C(Nc1cnn2ccc(N3CCC[C@@H]3c3cc(F)ccc3F)nc12)N1CC[C@H](O)C1 [larotrectinib] sits at 10% or higher.
satisfied

---

Could you please report measured inhibition at 1 µM for the items listed next?
- subject_of_test: panel of 255 wild-type kinases (Homo sapiens, UniProt O14578)
- Sequence (O14578 whole entry): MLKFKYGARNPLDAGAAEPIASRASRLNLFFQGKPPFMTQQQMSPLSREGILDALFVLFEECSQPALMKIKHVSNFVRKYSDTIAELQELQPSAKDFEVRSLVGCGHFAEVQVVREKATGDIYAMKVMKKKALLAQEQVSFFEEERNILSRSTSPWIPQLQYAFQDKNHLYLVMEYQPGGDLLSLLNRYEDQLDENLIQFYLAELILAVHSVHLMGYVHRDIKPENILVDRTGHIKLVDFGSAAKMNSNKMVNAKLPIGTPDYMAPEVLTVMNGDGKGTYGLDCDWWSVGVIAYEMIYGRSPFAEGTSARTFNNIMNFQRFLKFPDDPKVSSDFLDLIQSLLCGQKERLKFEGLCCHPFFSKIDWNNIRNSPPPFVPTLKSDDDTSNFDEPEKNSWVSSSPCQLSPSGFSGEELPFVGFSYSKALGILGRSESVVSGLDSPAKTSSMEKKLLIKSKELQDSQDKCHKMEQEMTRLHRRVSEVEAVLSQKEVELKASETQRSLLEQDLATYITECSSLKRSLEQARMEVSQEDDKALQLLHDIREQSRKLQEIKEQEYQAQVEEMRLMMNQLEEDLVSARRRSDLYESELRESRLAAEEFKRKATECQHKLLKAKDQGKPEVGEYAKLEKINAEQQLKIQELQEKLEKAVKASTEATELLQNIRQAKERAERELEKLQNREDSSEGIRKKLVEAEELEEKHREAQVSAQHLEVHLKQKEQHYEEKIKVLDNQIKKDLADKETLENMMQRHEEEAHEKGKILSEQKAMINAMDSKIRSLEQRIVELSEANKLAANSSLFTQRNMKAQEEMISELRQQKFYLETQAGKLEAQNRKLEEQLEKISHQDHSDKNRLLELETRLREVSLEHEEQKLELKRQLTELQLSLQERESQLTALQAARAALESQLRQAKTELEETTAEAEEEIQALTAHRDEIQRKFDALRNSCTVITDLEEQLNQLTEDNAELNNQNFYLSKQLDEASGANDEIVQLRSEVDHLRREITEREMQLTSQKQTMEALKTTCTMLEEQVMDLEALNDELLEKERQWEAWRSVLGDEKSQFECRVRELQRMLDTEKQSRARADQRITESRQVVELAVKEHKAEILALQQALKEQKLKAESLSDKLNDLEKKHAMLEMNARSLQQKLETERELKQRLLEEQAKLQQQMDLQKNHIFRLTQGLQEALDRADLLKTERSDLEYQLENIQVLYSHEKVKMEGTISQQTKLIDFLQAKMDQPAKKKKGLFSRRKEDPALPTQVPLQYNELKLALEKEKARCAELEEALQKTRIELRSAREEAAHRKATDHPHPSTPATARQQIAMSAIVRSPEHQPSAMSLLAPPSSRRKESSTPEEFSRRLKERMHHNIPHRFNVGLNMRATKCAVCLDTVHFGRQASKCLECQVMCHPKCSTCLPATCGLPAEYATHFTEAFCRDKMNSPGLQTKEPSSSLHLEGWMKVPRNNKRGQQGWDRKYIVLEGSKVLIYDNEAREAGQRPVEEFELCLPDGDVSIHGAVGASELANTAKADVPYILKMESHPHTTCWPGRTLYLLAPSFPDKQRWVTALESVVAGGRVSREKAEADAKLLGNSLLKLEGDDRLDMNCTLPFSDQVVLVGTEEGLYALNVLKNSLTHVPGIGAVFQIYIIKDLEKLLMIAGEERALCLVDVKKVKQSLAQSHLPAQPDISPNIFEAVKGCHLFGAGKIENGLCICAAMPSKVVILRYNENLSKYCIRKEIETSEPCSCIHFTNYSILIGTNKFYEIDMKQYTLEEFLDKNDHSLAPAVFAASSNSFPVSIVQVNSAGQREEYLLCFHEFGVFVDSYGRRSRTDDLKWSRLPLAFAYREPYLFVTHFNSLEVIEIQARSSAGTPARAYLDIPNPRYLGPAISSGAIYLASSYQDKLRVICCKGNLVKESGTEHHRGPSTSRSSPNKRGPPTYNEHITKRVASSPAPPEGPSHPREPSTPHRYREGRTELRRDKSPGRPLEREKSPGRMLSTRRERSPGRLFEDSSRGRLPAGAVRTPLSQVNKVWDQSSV
- measurement_notes: Kinase panel profiling at 1 µmol/L (MSA or IMAP), percentage inhibition
- Assay type: biochemical
- condition_notes: kinase CRIK; 1 µmol/L single concentration; read-out: %-inhibition at 1 µmol/L, CRIK
Answers are plain numbers, in %.

Example entries and their recorded answers appear below.
• C[C@H]1Oc2cc(cnc2N)-c2c(nn(C)c2C#N)CN(C)C(=O)c2ccc(F)cc21 = -1.22
• CO[C@]1(C(=O)N[C@@H](C)c2ccc(-n3cc(F)cn3)nc2)CC[C@H](c2nc(C)cc(Nc3cc(C)[nH]n3)n2)CC1 = -0.417

Note: attention shifts to another entry.
Quick one: inhibition at 1 µM of "CCN1C(=O)N(c2c(F)c(OC)cc(OC)c2F)Cc2cnc3[nH]c(CN4CCOCC4)cc3c21" ?
-4.34

---

- System: 134 cancer cell lines
- measurement_notes: Cell viability assay (ATPlite, 72 hours), IC50 on cancer cell line panel
- condition_notes: Homo sapiens, HCC4006, read-out: IC50 in cell proliferation assay, cell line HCC4006 (EGFR exon19del)
Hi there, I'd appreciate the recorded pIC50 for every entry that follows.
Give bare numbers, as −log10 of the molar value.

• Cn1cnc2c(F)c(Nc3ccc(Br)cc3F)c(C(=O)NOCCO)cc21 = 4.57
• CCN1CCN(c2ccc(Nc3cc(N(C)C(=O)Nc4c(Cl)c(OC)cc(OC)c4Cl)ncn3)cc2)CC1 = 5.21

Okay, now this molecule:
// map "Cn1cnc2c(F)c(Nc3ccc(Br)cc3Cl)c(C(=O)NOCCO)cc21" to recorded pIC50 (system: 134 cancer cell lines)
4.57

---

- subject_of_test: panel of 255 wild-type kinases (Homo sapiens, UniProt P78362)
- Sequence (P78362 whole entry): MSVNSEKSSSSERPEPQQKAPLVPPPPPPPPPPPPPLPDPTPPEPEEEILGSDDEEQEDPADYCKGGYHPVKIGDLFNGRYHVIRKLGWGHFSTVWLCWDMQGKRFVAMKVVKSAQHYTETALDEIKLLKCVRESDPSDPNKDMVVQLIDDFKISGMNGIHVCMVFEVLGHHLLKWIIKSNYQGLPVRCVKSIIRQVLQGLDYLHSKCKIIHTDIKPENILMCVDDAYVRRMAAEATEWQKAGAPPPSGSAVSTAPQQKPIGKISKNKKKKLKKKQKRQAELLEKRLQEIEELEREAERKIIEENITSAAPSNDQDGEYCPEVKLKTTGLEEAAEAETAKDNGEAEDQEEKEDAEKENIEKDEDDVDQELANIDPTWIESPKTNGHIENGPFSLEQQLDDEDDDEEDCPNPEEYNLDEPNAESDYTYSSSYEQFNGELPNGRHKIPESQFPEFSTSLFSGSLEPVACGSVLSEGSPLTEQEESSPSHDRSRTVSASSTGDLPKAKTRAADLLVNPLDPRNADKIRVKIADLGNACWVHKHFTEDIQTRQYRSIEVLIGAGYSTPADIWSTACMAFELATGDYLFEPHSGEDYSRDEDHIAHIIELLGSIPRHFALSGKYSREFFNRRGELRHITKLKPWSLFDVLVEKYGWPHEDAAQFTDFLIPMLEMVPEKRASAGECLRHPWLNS
- measurement_notes: Kinase panel profiling at 1 µmol/L (MSA or IMAP), percentage inhibition
- Type: biochemical
- condition_notes: kinase SRPK2; 1 µmol/L single concentration; read-out: %-inhibition at 1 µmol/L, SRPK2
quantity_kind: inhibition at 1 µM (%)
One number for each entry, in %.

• Cc1nc(NC(=O)N2CCC[C@H]2C(N)=O)sc1-c1ccnc(C(C)(C)C(F)(F)F)c1 = -1.61
• Cn1cc(-c2cc3c(N4CCN(c5ncc([C@@](C)(N)c6ccc(F)cc6)cn5)CC4)ncnn3c2)cn1 = -0.951
• Cn1cnc2c(F)c(Nc3ccc(Br)cc3Cl)c(C(=O)NOCCO)cc21 = -2.61

Turning now to a further compound:
Fill in: inhibition at 1 µM of "CCN1CCN(c2ccc(Nc3cc(N(C)C(=O)Nc4c(Cl)c(OC)cc(OC)c4Cl)ncn3)cc2)CC1" is ___
-5.51

---

For each entry below, report its IC50 value.
- subject_of_test: FGFR1 (Homo sapiens)
- Sequence (P11362 22-822): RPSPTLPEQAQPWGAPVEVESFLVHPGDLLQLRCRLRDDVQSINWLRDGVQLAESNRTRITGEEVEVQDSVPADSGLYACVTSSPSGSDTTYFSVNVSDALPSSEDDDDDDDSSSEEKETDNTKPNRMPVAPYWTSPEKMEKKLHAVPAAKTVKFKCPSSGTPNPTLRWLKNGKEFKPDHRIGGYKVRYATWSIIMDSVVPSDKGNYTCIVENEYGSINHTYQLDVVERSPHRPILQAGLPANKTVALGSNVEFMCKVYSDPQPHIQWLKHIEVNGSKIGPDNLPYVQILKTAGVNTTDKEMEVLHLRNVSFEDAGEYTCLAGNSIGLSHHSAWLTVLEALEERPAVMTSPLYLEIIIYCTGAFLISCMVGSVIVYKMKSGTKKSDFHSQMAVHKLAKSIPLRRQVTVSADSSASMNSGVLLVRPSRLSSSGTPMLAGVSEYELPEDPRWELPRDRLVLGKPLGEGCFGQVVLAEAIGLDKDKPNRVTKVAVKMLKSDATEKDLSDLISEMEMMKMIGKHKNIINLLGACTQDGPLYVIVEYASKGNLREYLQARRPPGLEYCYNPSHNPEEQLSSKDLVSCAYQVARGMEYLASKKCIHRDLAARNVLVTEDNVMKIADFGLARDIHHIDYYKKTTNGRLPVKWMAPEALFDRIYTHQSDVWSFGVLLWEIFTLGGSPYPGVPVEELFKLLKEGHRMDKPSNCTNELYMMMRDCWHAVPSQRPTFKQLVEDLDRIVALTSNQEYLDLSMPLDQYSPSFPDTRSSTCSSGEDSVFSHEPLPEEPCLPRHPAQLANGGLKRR
Answers are plain numbers, in nM.

* COc1ccc(CN2C3CC2CN(c2ccc(-c4cc(OCC(C)(C)O)cn5ncc(C#N)c45)cn2)C3)cn1 [selpercatinib] | 46

Below: the item to evaluate.
For the compound shown here, CO[C@]1(C(=O)N[C@@H](C)c2ccc(-n3cc(F)cn3)nc2)CC[C@H](c2nc(C)cc(Nc3cc(C)[nH]n3)n2)CC1 [pralsetinib] , give the reported IC50.
11

---

- Test system: panel of 255 wild-type kinases
- measurement_notes: Kinase panel profiling at 1 µmol/L (MSA or IMAP), percentage inhibition
- Format: biochemical
- condition_notes: kinase SRM; 1 µmol/L single concentration
Can you tell me %-inhibition at 1 µmol/L, SRM for the items I'm about to list?
One number for each entry, in %.

Answered examples (2):
• C=CC(=O)N1CCC([C@@H]2CCNc3c(C(N)=O)c(-c4ccc(Oc5ccccc5)cc4)nn32)CC1 [zanubrutinib] = 58
• C[C@H]1Oc2cc(cnc2N)-c2c(nn(C)c2C#N)CN(C)C(=O)c2ccc(F)cc21 [lorlatinib] = 59

Please look at the following compound next.
Item: Cn1cnc2c(F)c(Nc3ccc(Br)cc3F)c(C(=O)NOCCO)cc21 [binimetinib] Test system: panel of 255 wild-type kinases Read-out: %-inhibition at 1 µmol/L, SRM Value: ?
-1.11
